Each recorded value in this set is attributed to patent US20180185305A1.

System: Mycobacterium abscessus
Assay: Antimicrobial susceptibility of M. abscessus isolates, CLSI broth microdilution (MIC100)
Type: cell-based
Conditions: Mycobacteroides abscessus, strain MR313292 (clinical)
endpointName: MIC (µg/mL)

a: NCC[C@H](O)C(=O)N[C@@H]1C[C@H](N)[C@@H](O[C@H]2O[C@H](CN)[C@@H](O)[C@H](O)[C@H]2O)[C@H](O)[C@H]1O[C@H]1O[C@H](CO)[C@@H](O)[C@H](N)[C@H]1O [Amikacin]
b: CC[C@H]1OC(=O)[C@H](C)[C@@H](O[C@H]2C[C@@](C)(OC)[C@@H](O)[C@H](C)O2)[C@H](C)[C@@H](O[C@@H]2O[C@H](C)C[C@H](N(C)C)[C@H]2O)[C@](C)(O)C[C@@H](C)CN(C)[C@H](C)[C@@H](O)[C@]1(C)O [Azithromycin]
Please tell me which of the two, a or b , has the higher reported MIC value. Response format: the label of the selected entry. b

====

Tested on: Mycobacterium abscessus
Assay: Antimicrobial susceptibility of M. abscessus isolates, CLSI broth microdilution (MIC100)
Assay type: cell-based
Conditions: Mycobacteroides abscessus, strain MR27419N (clinical)
endpointName: MIC (µg/mL)

// worked examples, MIC included
Lookup result for NCC[C@H](O)C(=O)N[C@@H]1C[C@H](N)[C@@H](O[C@H]2O[C@H](CN)[C@@H](O)[C@H](O)[C@H]2O)[C@H](O)[C@H]1O[C@H]1O[C@H](CO)[C@@H](O)[C@H](N)[C@H]1O [Amikacin] ; measured MIC: 16

The compound CC[C@H]1OC(=O)[C@H](C)[C@@H](O[C@H]2C[C@@](C)(OC)[C@@H](O)[C@H](C)O2)[C@H](C)[C@@H](O[C@@H]2O[C@H](C)C[C@H](N(C)C)[C@H]2O)[C@](C)(O)C[C@@H](C)CN(C)[C@H](C)[C@@H](O)[C@]1(C)O [Azithromycin] showed MIC equal to 1

I: C[C@@H](O)[C@H]1C(=O)N2C(C(=O)O)=C(S[C@@H]3CN[C@H](C(=O)N(C)C)C3)[C@H](C)[C@H]12 [Meropenem]
II: NCCS [Cysteamine, cysteamine]
Which has the higher MIC, I or II ? # answer = label of selected item II
(II: 125 µg/mL, I: 64 µg/mL)
